experiment: self-splicing fitness, log relative to wild type (ln ratio); higher = more splicing; Tetrahymena group I intron in knt gene, E. coli kanamycin selection, DiMSum; sequences stand for … in CUCUCU…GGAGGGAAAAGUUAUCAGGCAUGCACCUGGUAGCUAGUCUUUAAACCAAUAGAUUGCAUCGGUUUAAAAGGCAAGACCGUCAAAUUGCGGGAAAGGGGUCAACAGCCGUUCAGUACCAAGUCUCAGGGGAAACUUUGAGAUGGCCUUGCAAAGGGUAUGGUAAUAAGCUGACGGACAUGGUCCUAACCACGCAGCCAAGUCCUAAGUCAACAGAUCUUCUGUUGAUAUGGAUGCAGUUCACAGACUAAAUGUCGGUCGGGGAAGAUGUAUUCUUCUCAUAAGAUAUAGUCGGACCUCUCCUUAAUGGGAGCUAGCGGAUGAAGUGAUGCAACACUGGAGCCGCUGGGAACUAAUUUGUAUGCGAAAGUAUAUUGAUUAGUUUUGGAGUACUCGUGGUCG; conditions: 37 °C;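 note: selection with 25 µg/mL kanamycin versus none on LB agar overnight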
property: self-splicing fitness (ln)
Could you respond with only the numeric value?

self-splicing fitness (ln) for `UAUUAGCAAUAUUACGUAAG` ?
-1.41

self-splicing fitness (ln) for `AGAAAGCAAUAUUACGUUAC` ?
-1.89

self-splicing fitness (ln) for `UCCUAGCAAUAUUACGCCCC` ?
-2.12

self-splicing fitness (ln) for `CUAGAGCAAUAUUACGGAAU` ?
-2.82

self-splicing fitness (ln) for `AAGCAGCAAUAUUACGGCUA` ?
0.0975

self-splicing fitness (ln) for `AUGUAGCAAUAUUACGAGAC` ?
-2.09

self-splicing fitness (ln) for `UCAAAGCAAUAUUACGAACA` ?
-0.524

self-splicing fitness (ln) for `CCCUAGCAAUAUUACGCCGU` ?
-2.42

self-splicing fitness (ln) for `AUUGAGCAAUAUUACGGCGA` ?
-0.878

self-splicing fitness (ln) for `CCACAGCAAUAUUACGUAUA` ?
-2.84

self-splicing fitness (ln) for `ACGGAGCAAUAUUACGUAUA` ?
-1.86

self-splicing fitness (ln) for `GCGCAGCAAUAUUACGGGAA` ?
-0.883

self-splicing fitness (ln) for `CAUUAGCAAUAUUACGCGGG` ?
0.421

* * *

assay: self-splicing fitness, log relative to wild type (ln ratio); higher = more splicing; Tetrahymena group I intron in knt gene, E. coli kanamycin selection, DiMSum; sequences stand for … in CUCUCU…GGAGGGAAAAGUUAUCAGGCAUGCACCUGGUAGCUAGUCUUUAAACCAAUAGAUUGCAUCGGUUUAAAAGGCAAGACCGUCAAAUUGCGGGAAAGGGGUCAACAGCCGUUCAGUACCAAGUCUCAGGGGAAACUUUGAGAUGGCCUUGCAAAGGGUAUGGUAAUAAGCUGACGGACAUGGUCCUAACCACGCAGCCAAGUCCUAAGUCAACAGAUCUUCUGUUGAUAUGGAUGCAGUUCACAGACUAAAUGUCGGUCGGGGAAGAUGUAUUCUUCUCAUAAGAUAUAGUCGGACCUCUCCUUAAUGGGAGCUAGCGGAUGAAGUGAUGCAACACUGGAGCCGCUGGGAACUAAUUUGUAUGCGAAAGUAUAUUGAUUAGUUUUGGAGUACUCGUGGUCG; details: 30 °C
Respond with true for self-splicing fitness (ln) values of -2 and above, false for values below.

Study these solved cases before continuing.
1. CUCUAGCAAUAUUACGCUUC
false
2. UAAAAGCAAUAUUACGUAUC
false
3. CACAAGCAAUAUUACGUCAU
false
4. CUAGAGCAAUAUUACGGCAA
false
5. AGGCAGCAAUAUUACGACGC
true

Is the recorded value of self-splicing fitness (ln) equal to or greater than -2 for this sequence? `GUACAGCAAUAUUACGAUCC`
true
